These data points were gathered from paper PMC5078090.

system: chicken embryos; assay: In ovo chicken embryo teratogenicity assay; type: in vivo, white leghorn chicken; conditions: HH stage 17-18 embryos; where no activity was seen the concentration shown is the lowest screened
experimental readout: Lowest effective concentration, Chicken assay

[
  {
    "molecule": "Nc1ccc2c(c1)OC(=O)C(C1CCC(=O)NC1=O)C2=O (stereo not drawn) [Compound C24]",
    "result": "100 µg/mL"
  },
  {
    "molecule": "O=C1c2cccc([N+](=O)[O-])c2CN1C1C2CC3CC(C2)CC1C3 (stereo not drawn) [Compound C82]",
    "result": "100 µg/mL"
  }
]

Next item in the queue.
Ask: Requested field: Lowest effective concentration, Chicken assay. Item: Nc1cccc2c1CN(C1CCC(=O)NC1=O)C2=S (stereo not drawn) [Compound C29]
Result: 100 µg/mL
